The reported numbers originate from the RNAGym collection of RNA variant scans (doi:10.1126/science.aae0568).

B1: tRNA (parent)
chain: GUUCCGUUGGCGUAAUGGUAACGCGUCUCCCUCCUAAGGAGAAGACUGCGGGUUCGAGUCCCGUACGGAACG

variants of: B1; experiment: yeast fitness relative to wild type (ratio to wild type); higher = fitter; tRNA-Arg(CCU), competitive growth, 37 C, YPD
Fewer inactive variants are shown than the library holds.
Catalogue of yeast fitness values
Quantity kind: yeast fitness

> print(dat)
                              input.sequence  quantity.kind  qualifier.sign  measured.result
 1  GUUCCGUUGGCGUAAUGGUAACGCGUCUCCCUCCUAAGGAGAAGACUGGGGAUUCGAGUCGCGUACGGAACG  yeast fitness               =            0.534
 2  GUUCCGUUGGCGUAAUGGUAACGCGUCUCCCUCCUAAGGAGAAGACUGCGGGUUCGAGACCCGUUCGGAACG  yeast fitness               =            0.636
 3  GUUCUGUUGGCGUAAUGGUAACCCGCCUCCCACCUAAGGAGUAGACUGCGGGUUCGAGUCCCGUCCGGAACG  yeast fitness               ≤              0.5
 4  GUUCCGUUGGCGUAAUGGUAACGCGUCUCCCUCCUAAGGAGAAGACUGCGGGUUCGAGUCACGUACGAAACG  yeast fitness               =            0.716
 5  GUUCCGAUGGCAUAAUGGUAACGCGUAUCCCUCCUAAGGAGAAGACUGCGGGUUCGAGUCCCGUACGGAACG  yeast fitness               ≤              0.5
 6  GUUCCGUUGGCGUACUGGUAACGCGUCUCCCUCCUAAGGAGAAGACUGCGGGUUCGCGUCCCGUACGGAACG  yeast fitness               ≤              0.5
 7  GUUCCGCUGGCGUAAUGGUAACGCGUCUCCUUCCUAAGGAGAAGACUGCGGGUUCGUGUCCCGUACGGCACG  yeast fitness               ≤              0.5
 8  GUUCCGUUGGCGUAAUGGUAACGCGUCUGCCUCCUAAGGUGAAGACUGCGGGUUCGAAUCCCGUACGGAACG  yeast fitness               ≤              0.5
 9  GUUCCGUUGGCGUAAUGGUAACGCGUCUCCCUCCUAAGGAGAACACUGCGGGUUCGAAUCCCGUACGGAACG  yeast fitness               =             1.02
10  GGUCCGUUGGCGUAAUGGUAACGCGUCUCUCCCCUAAGGAGAAGACUGCGGGUUGGAGUCCCGUACGGAACG  yeast fitness               ≤              0.5
11  GUUUCGUUGGCGUAAUGGUAACGCGUCUCCCUCCUAAGGAGCAGACUGCGGGUUCGAGUCGCGUUCGGAACG  yeast fitness               =             0.62
12  GUUGCGUUGGUGUUAUGGUAACGCGUCUCGCUCCUAAGGAGAAGACUGCGGGUUCGAGUCCCGUACGGUACG  yeast fitness               ≤              0.5
13  GUUCCGUUGGCGUAAUGGUAACGCGUCUCCCUCCUACGGAGAAGAUUGCGGGUUCGAGUCCCGUACGGUACG  yeast fitness               =              0.7
14  GUUCCGUUGGCGUAAUGGUAACGCGUCUCACUCCUAAGGAGAAGACUGCGGGUUCGAGGCCCGUACGGAACG  yeast fitness               =            0.775
15  GUUCCGUUGGCGUAAUGGUAACGCGUCUUCCUCCUAAGGAGAAGACUGCGGGAUCGAGUCCCGUACGGAACG  yeast fitness               =            0.625
16  GUUCGGUUGGCGUAAUGGUAACGCGUCUCCAUCCUAAGGAGAAGCCUGCGGGUUCGAGUCCCGUACGGAACG  yeast fitness               ≤              0.5
17  GUUCCGUUGGCGUGAUGGUAACGCGUCUCUCUCCUAAGGAGAAGACUGCGGGUUCGAGUCCCGUACGGAACG  yeast fitness               =             0.81
18  GUUCCGUUGGCGUAAUGGUAACGAGUCUCCCUCCUAAGGAGCAGACUGCGGGUUCGAGUCCCGCACGGAACG  yeast fitness               ≤              0.5
19  GUUCCGUUGGCGUAAUGGUCACGCGUCUCCCUCCUACGGAGAGGACUGCGGGUUUGAGUCCCGUACGGAACG  yeast fitness               ≤              0.5
20  GUUCCGUGGGCGUAAUGGUAACGCAUCUCCCUCCUAAGGAGAAGACUGCGGGUUCGAGUCCCGUACGGACCG  yeast fitness               =            0.544
21  GUUCCGUUGACGUAAAGGUACCGCGUCUCCCUCCUAAGGAGAAGACUGCGGGUUCGAGUCCCGUACGGAACG  yeast fitness               =                1
